molecular target: Prostaglandin G/H synthase 1 (Ovis aries, UniProt P05979)
Sequence (P05979 whole entry): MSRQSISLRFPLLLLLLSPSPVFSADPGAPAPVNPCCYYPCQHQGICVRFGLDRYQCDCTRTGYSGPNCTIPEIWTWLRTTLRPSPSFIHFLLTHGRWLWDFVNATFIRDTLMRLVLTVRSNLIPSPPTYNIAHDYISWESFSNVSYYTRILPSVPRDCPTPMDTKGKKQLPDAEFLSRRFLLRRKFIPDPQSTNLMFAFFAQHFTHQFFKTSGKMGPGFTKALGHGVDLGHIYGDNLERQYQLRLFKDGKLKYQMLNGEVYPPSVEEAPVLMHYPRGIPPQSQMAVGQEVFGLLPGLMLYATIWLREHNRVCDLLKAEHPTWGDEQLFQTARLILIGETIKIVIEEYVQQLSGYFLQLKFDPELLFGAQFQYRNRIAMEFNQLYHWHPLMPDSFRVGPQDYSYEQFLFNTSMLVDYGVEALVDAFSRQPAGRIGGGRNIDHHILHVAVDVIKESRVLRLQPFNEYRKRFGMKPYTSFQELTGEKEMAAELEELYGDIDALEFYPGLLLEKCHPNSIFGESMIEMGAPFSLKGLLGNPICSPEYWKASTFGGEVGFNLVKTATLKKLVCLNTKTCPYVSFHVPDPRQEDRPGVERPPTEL
REPORTED_METRIC: IC50 (µM)
Could you give me the number in µM? Just the number is fine.

API: value(readout= IC50, system= Prostaglandin G/H synthase 1 (Ovis aries, UniProt P05979), query= CCCN1C(=O)CCSC1c1ccc(S(C)(=O)=O)cc1 (stereo unspecified) )
14.1

Reference source: ChEMBL document CHEMBL1781913
